- test_details: yeast display, Sf9 membrane polyspecificity reagent, FACS + sequencing; frameworks hold sequencing errors
recorded_metric: polyreactivity (PSR sort gate)

Below are worked cases with known answers.
sequence_text	recorded_metric	assay_value
QVQLVESGGVLVQAGGSLRLSCAASGRTVTVNAMGWYRQAPGKERELVAAITGRGGNTNYADSLKGRFTISRDNAKNTVYLQMNSQKPEDTAVFYCYARYHGRAKHDYWGQGTQVTVSS	polyreactivity (PSR sort gate)	high polyreactivity
QVQLVESGGGIVQAGGSLRLSSAASGRIFDGYTKGWYRHEPGKERQLVAAITYRSGRTYYADSVKGRFTISRDNAKNTVYLQMHSLKPDDTAVYYCAAPWYRGGNTESYYWGQGTQVTVSS	polyreactivity (PSR sort gate)	high polyreactivity
QVQLVESGGGLVQAGGSLRLSCAASGSIIGRYAMGWYRQAPGKERELVAAISKNGGSRYYADSVKGRFTISRDNAKNTVYLQMNSLKPEDTAVYYCNTVRYSCNYRDQEGDYWGQGTQVTVSS	polyreactivity (PSR sort gate)	high polyreactivity
QVQLVESGGGLVQAGGSLRLSCAASGRIFSYYAMGWYRQAPGKERELVASISRSGGSTYYADSVKGRFTISRDNAKNTVYLQMNSLKPEDTAVYYCAAYKYVRSYPYDYWGQGTQVTVSS	polyreactivity (PSR sort gate)	low polyreactivity
QVQLVESGGGLVQAGGSLRLSCAASGSTFYLYAMGWYRQAPGKERELVASITSGDGSTYYADSVKGRFTISRDNPKNTVYLQMNSLKPEDTAVYDCNAVLEGWFYQDDYWGQGTQVSVSS	polyreactivity (PSR sort gate)	low polyreactivity
QVQLVESGGGLVQAGGSLRLSCAASGRTFKLNAMGWYRKAPGKERELVAGITRTGDSTYYADSVKGRFTISRDNAKNTVYLQMNSLKPEDTAVYYCAAAEWYSMDYWGQGTQVTVSS	polyreactivity (PSR sort gate)	low polyreactivity
QVQLVESGGGLVQAGGSLRLSCAASGSIFSINAMGWYRQAPGKERELVAVISWIGGNTYYADSVKGRFTISRDNAKNTVYLQMNSLKPEDTAVYYCAVATGPVSYRRYYWGQGTQVTVSS	polyreactivity (PSR sort gate)	high polyreactivity
QVQLGESGGGLVQAGGSLRLSCAASGRIFGAYAMGWYRPAPGKERELVAAITSRGGNTYYADSVKGRFTISRDNAKKTAYLQLNSLKPQDTAVYYCAARHDKRRQYYVGQSAFDYGGQGTQVTVSS	polyreactivity (PSR sort gate)	low polyreactivity
QVQLVESGGGLVQAGGSLRLSCAASGFTFEKYAMGWYRQAPGKERELVAAITQSAGSTYADSVKGRFTISRDNAKNTVYLQMNSLKPVDTAVYYCAARYRYPYYARYGYWGQGTQVTVSS	polyreactivity (PSR sort gate)	high polyreactivity
QVQLVESGGGLVQAGGSLRLSCAASGSTFSNNAMGWYRQAPGKERELVATISQSGGSTYYADSVKGRFTISRDNAKNTVYLQMNSLKPEDTAVYYCNAESYLTGWWYDYWGQGTQVTVSS	polyreactivity (PSR sort gate)	high polyreactivity

Kindly review the next sequence as well.
Please list polyreactivity (PSR sort gate) recorded for the sequence "QVQLQESGRRPRAAGGSPRMSCAASGNIIWVAVMCRYRQAPVKERELVASIGFGCTTYYADSVKCRFTISRDNAKNTVYLQMISLIPEDTAVYYCAAPHYDWGELDFWGQGTQVPVSS" low polyreactivity
